system: human CD33 Q171A (human, UniProt P20138 18-364)
Sequence (P20138 18-364 Q171A limits assumed): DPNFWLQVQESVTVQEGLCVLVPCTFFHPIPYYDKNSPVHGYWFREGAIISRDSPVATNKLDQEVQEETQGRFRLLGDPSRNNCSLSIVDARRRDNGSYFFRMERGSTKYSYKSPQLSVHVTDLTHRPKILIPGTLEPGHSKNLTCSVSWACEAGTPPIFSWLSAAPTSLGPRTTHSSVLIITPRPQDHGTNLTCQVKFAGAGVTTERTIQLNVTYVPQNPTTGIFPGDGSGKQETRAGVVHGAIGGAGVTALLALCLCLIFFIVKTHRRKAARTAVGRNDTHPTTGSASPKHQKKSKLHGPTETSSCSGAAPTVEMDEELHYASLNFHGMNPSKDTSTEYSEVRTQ
assay.details: alanine scan, flow cytometry, HEK293-T;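 further: antibody binding to each alanine-substituted CD33 mutant expressed transiently in HEK293-T, read as fluorescence minus background, mean of duplicates, relative to wild-type CD33 set as 100%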
property: Mean % WT Binding (%)

binder	readout.number
Refmab #2 (antibody, V domains shown, In the alanine scan antibodies were used as IgG or Fab) VH: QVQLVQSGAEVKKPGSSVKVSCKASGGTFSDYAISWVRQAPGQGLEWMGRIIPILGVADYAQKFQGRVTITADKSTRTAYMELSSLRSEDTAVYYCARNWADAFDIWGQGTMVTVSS VL: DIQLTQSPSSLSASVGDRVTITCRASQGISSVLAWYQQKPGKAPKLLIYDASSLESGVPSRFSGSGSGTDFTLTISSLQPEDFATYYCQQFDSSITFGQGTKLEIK	90
Refmab #1 (antibody, V domains shown, In the alanine scan antibodies were used as IgG or Fab; also called hP67.6) VH: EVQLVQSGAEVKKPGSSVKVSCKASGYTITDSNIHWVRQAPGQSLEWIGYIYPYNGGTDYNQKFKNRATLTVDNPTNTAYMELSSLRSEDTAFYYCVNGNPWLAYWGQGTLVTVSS VL: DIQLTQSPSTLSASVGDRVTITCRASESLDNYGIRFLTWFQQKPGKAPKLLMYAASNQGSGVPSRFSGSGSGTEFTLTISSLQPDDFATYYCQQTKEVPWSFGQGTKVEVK	90.8
Refmab #3 (antibody, V domains shown, In the alanine scan antibodies were used as IgG or Fab) VH: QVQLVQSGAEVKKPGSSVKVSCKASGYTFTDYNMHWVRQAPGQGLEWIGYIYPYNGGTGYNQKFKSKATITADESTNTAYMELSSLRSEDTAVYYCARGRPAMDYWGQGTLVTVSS VL: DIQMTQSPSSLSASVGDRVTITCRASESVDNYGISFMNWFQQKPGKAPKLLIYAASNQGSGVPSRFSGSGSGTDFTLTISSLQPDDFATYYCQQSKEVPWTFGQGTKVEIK	138
Refmab #4 (antibody, V domains shown, In the alanine scan antibodies were used as IgG or Fab) VH: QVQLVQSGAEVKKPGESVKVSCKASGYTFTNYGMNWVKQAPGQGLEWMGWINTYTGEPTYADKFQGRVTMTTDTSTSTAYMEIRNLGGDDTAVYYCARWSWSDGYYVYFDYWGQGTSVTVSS VL: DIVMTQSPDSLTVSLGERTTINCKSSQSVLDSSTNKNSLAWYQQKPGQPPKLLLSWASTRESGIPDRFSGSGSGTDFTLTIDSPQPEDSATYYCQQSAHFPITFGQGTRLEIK	102
